The measured values listed here are drawn from PubChem BioAssay (NCI).

Listing of entries alongside the reported growth.
tested on: BT-549 breast; assay: NCI-60 one-dose screen, 48 h (100 = growth as untreated, 0 = no growth, -100 = all killed); conditions: 10 µM unless noted
About 83,000 compounds went through this panel and 20% of them were active in at least one assay; those are over-represented in the sample as a whole.

COMPOUND	growth / %
COC(=O)c1ccc2[nH]c(O)c(C(=Nc3ccc(N(C)C(=O)CN4CCN(C)CC4)cc3)c3ccccc3)c2c1	11.2
CC(=O)OC[C@H]1OC(Sc2sc(C(=O)c3ccc(C)cc3)c(N)c2-c2nc3ccccc3s2)[C@H](OC(C)=O)[C@@H](OC(C)=O)[C@@H]1OC(C)=O (some centres not stated)	83.4
COc1ccc(-c2nc3sc(-c4ccccc4)cn3n2)cc1	73.3
CCn1cnc2c1c(=O)[nH]c(=O)n2CC1CCC(CNS(=O)(=O)c2ccc(OC3CCOCC3)c(F)c2)CC1 (configuration not stated)	72.7
COc1ccc(/C=N/Nc2cc(=O)[nH]c3ccc(C)cc23)cc1	88.3
COc1ccc(CNC(=O)C(=O)[C@H](Cc2ccccc2)NC(=O)c2[nH]c3ccccc3c(=O)c2C)cc1	115
CC(=O)Oc1ccccc1C(=O)N=C1[Se]CCCN1C(=O)c1ccccc1OC(C)=O	-97.2
CCCCCCCCCCCCCCCCCCOc1ccccc1CCCOP(=O)(O)OCC[N+](C)(C)C	77.4
C=C1C(=O)O[C@H]2[C@H]1CC/C(COC(=O)CCSSCCC(=O)OC/C1=C/CC[C@@]3(C)O[C@H]3[C@H]3OC(=O)C(=C)[C@@H]3CC1)=C\CC[C@@]1(C)O[C@@H]21	-78.5
O=C(Nc1ccc(Cl)cc1F)c1ccccc1O	24.9
O=C1/C(=C/c2ccccc2[N+](=O)[O-])Oc2ccc(O)c(O)c21	52.9
O=C1NC(=O)C(Cn2cnc3ccccc32)N1 (configuration not stated)	110

====

tested on: NCI-H226 lung; experiment: NCI-60 one-dose screen, 48 h (100 = growth as untreated, 0 = no growth, -100 = all killed); settings: 10 µM unless noted
The panel holds about 83,000 compounds, 20% with a hit somewhere; the sample as a whole holds those more often.
growth vs 90%: at or above is Condition met, below is Condition not met.

> print(dat)
                                smiles.code              class
1  COc1cc(Nc2nc(NCCN)nc3cc[nH]c(=O)c23)cc(OC)c1      Condition met
2  COc1ccc(NC(=O)n2nc(/C=C\c3ccc(O)c(OC)c3)cc2/C=C\c2ccc(O)c(OC)c2)cc1  Condition not met
3  Cc1cc2nc3cc(C)c(N)cc3[n+](-c3ccccc3)c2cc1N  Condition not met
4           CNCCCC12CCC(c3ccccc31)c1ccccc12      Condition met
5     Cc1ccc(/C=C(\C#N)n2nc3cccc(F)c3n2)cc1      Condition met
6  O=C(CCN1C(=O)/C(=C/c2ccc(O)cc2)SC1=S)Nc1ccc(Cl)cc1      Condition met
7  C=C1C(=O)O[C@H]2[C@H]1CC/C(COC(=O)CCC(=O)NCCOCCOCC(=O)Nc1ccc(OC)c(C(N)=O)c1O)=C\CC[C@@]1(C)O[C@@H]21  Condition not met

====

system: NCI-H460 lung; experiment: NCI-60 one-dose screen, 48 h; settings: 10 µM unless noted
Compounds without any hit were thinned out: in the full panel of roughly 83,000, 20% have a hit. Activity calls are given as the source filed them. How the source made its calls: active means growth percent below 10; inactive means the rest.
Outcomes: active, inactive

> print(dat)
                                    molecule     class
 1  CN1C(=C2C(=O)OC(C)(C)OC2=O)CCC1C(=O)NCc1ccc(Cl)cc1Cl (centres undefined)  inactive
 2  O=C1CN(CCN2CC(=O)N(Cc3ccccc3)C(=O)C2)CC(=O)N1Cc1ccccc1  inactive
 3  C=C1C(=O)O[C@H]2[C@H]1CC/C(COC(=O)CCC(=O)NCCOCCOCC(=O)Nc1ccc(OC)c(C(N)=O)c1O)=C\CC[C@@]1(C)O[C@@H]21  inactive
 4  Brc1ccc2[nH]cc(-c3nc(-c4c[nH]c5ccncc45)cs3)c2c1    active
 5                COc1cc(CCCO)c(OC)c(OC)c1OC  inactive
 6  O=C(Nc1ccc(OS(=O)(=O)c2ccc(F)cc2)cc1)c1ccc(Cl)cc1  inactive
 7  Cc1ccc(S(=O)(=O)Oc2ccc(NC(=O)c3ccc(Cl)cc3)cc2)cc1  inactive
 8                Nc1nc(Cl)cc(=O)n1Cc1ccccc1  inactive
 9  CN1CCN(Cc2ccc(NC(=O)c3ccc(C(C)(C)C)c(C#Cc4cnc5cccnn45)c3)cc2C(F)(F)F)CC1    active
10  COc1cc(C(=O)/C=C/c2sc(Cl)nc2Cl)cc(OC)c1OC  inactive
11          O=C(Nc1ccc(Br)cc1F)c1cc(Br)ccc1O    active
12   COc1ccc(OC)c(/C=C/c2nnc(Nc3ccccc3)o2)c1  inactive
13  Nc1ccccc1-c1cc2c(c3c1[nH]c1ccccc13)CCCCC2  inactive
14  CCCCCCN1C(=O)/C(=c2\sc3n(c2=O)C2C(NN=3)N(CC)C(=O)N2CC)c2ccccc21 (centres undefined)    active

====

system: U251 CNS; assay: NCI-60 one-dose screen, 48 h (100 = growth as untreated, 0 = no growth, -100 = all killed); details: 10 µM unless noted
This is part of a sample that, as a whole, favours compounds with a hit. Of some 83,000 tested, about 20% had one in any assay.
growth vs 50%: at or above is met, below is not met.

> print(dat)
                                    compound  target.of.assay    class
 1     COc1ccc(-c2nc(NCCO)[nH]c(=O)c2C#N)cc1         U251 CNS      met
 2  CCOc1ccc2nc(SCc3nc4n(n3)S(=O)(=O)c3ccccc3N4C)sc2c1         U251 CNS  not met
 3  CS(=O)(=O)N(c1cc(-c2ccc3ncnc(Nc4ccc(F)c(Cl)c4)c3c2)cnc1Cl)S(C)(=O)=O         U251 CNS  not met
 4  C/C(=C(/c1ccccc1)c1ccc(N2C(=O)c3cccc4c(N5CCN(C)CC5)ccc(c34)C2=O)cc1)c1ccccc1         U251 CNS      met
 5  COc1cc(C(=O)c2cc(C)c3[nH]c4ccc(C)cc4c3c2C)cc(OC)c1OC         U251 CNS  not met
 6  COc1nc2ccccc2cc1-c1nc2c(cnn2-c2ccccc2)c(=O)[nH]1         U251 CNS  not met
 7   COc1ccc(C(=O)N=Nc2c(O)n(C)c3ccccc23)cc1         U251 CNS      met
 8  C[C@H](C(=O)Nc1ccc(S(N)(=O)=O)cc1)S(=O)(=O)c1ccccc1         U251 CNS      met
 9       CCOC(=O)CCN(C(=O)Nc1ccccc1)C1CCCCC1         U251 CNS      met
10   O=C(Cc1ccc2c(c1)OCCO2)Nc1nc2ccc(F)cc2s1         U251 CNS      met
11  COc1nc2ccc(C)cc2cc1-c1nc2c(cnn2-c2ccccc2)c(=O)[nH]1         U251 CNS      met
12  Cc1c(C(=O)N[C@@H](Cc2ccccc2)C(=O)C(=O)NCc2ccc(F)cc2)[nH]c2ccccc2c1=O         U251 CNS      met
13  O=C(Cc1ccc(F)c(Cl)c1)Nc1cc(C2(C(F)(F)F)CC2)nn1Cc1ccccc1         U251 CNS  not met
14                O=c1ccc(N=Nc2ccccc2)ccc1Cl         U251 CNS      met
15  CCC(C)(c1cc(C(C)(C)C)c(O)c(C(C)(C)C)c1)c1cc(C(C)(C)C)c(O)c(C(C)(C)C)c1         U251 CNS      met
16  COc1ccc2c(c1)/C(=C/c1sc(=S)n(Cc3ccco3)c1O)C=N2         U251 CNS  not met
17  O=C(CCc1nnc(-c2c(Cl)cccc2Cl)o1)c1nc2ccccc2[nH]1         U251 CNS      met
18      COc1cccc(Cc2nn3cc(-c4ccccc4)nc3s2)c1         U251 CNS      met
19  COc1ccc(C2CC(c3ccc(Nc4ccnc5cc(Cl)ccc45)cc3)=NN2C=O)cc1 (stereo not given)         U251 CNS      met
20                Nc1nc(Cl)cc(=O)n1Cc1ccccc1         U251 CNS      met

====

tested on: NCI-H522 lung; experiment: NCI-60 one-dose screen, 48 h (100 = growth as untreated, 0 = no growth, -100 = all killed); conditions: 10 µM unless noted
About 83,000 compounds went through this panel and 20% of them were active in at least one assay; those are over-represented in the sample as a whole. The source made the active and inactive calls. The calls were made as follows: active = growth percent below 10; inactive = the rest.
Listing of entries alongside the reported growth.
READOUT: growth

> print(dat)
                                    compound   observed.result
 1  Cc1ccc2nc(NC(=O)CSc3nc(Cl)c(C#N)c(-c4ccccc4)n3)sc2c1  86.9% (inactive)
 2  Cc1nn(-c2ccccc2)c(-n2ccnc2)c1/C=N/Nc1nc(-c2ccc(F)cc2)cs1  73.6% (inactive)
 3  CC1=C([Se]CC(OC(=O)[C@@H](CSSC(C)(C)C)NC(=O)OC(C)(C)C)C(=O)NC(C)(C)C)C(=O)c2ccccc2C1=O (stereo partly drawn)    7.01% (active)
 4                       CCOC(=O)NCCc1ccccc1  98.1% (inactive)
 5  O=C(O)C(c1ccccc1)N1C(=O)CSC1=S (stereo not drawn)  88.2% (inactive)
 6  Cc1ccc(-c2nc(N3CCN(C(=O)Nc4ccc(Cl)c(C(F)(F)F)c4)CC3)c3ccccc3n2)cc1  69.9% (inactive)
 7  S=c1nc(-c2ccccc2)oc(=NC2CCCCC2)n1C1CCCCC1   -25.6% (active)
 8           O=C(/C=C/c1sc(Cl)nc1Cl)c1ccccc1    93% (inactive)
 9  Cc1ccc(-c2nn(C)c(=O)c3noc(-c4ccc(C)cc4)c23)cc1    9.02% (active)
10       COc1ccc(C(=O)/C=C/c2sc(Cl)nc2Cl)cc1  19.1% (inactive)
11  CN1CCN(c2ccc(-c3cnc4c(-c5csc6ccccc56)cnn4c3)cc2)CC1   -60.8% (active)
12  COC1=C(C)C(=O)c2c(c(CCCl)c3n2CCC3O)C1=O (stereo not drawn)   -46.1% (active)
13     NCCNc1nc2ccccc2c2c(=O)c3cccc(F)c3sc12  59.2% (inactive)
